Data provenance is patent US12558356B2.

# System: p-S6 level in MCF7 cells
# Test Method Notes: Western blot of p-S6 level in MCF7 cells after combination treatment with Rapa/Rapalink and candidate compound (blockade score)
# Assay type: cell-based
# Recorded Conditions: 10 nM Rapalink + 10 μM candidate compound, 24 h, p-S6 level as fraction of DMSO control

- Smiles String: "CO[C@H]1C/C(C)=C/[C@@H](CCCSCCN(C)C)C(=O)C[C@H](O)[C@@H](C)[C@@H](/C(C)=C/[C@@H]2CC[C@@H](O)[C@H](OC)C2)OC(=O)[C@@H]2CCCCN2C(=O)C(=O)[C@]2(O)O[C@H]([C@@H](OC)C1)[C@@H](OC)C[C@H]2C"
  RapaLink-1 Blockade: "3 (>70%)"
- Smiles String: "CO[C@H]1C/C(C)=C/[C@@H](CCCSCCN)C(=O)C[C@H](O)[C@@H](C)[C@@H](/C(C)=C/[C@@H]2CC[C@@H](O)[C@H](OC)C2)OC(=O)[C@@H]2CCCCN2C(=O)C(=O)[C@]2(O)O[C@H]([C@@H](OC)C1)[C@@H](OC)C[C@H]2C"
  RapaLink-1 Blockade: "3 (>70%)"
- Smiles String: "CO[C@H]1C/C(C)=C/[C@@H](C/C=C/C(=O)O)C(=O)C[C@H](O)[C@@H](C)[C@@H](/C(C)=C/[C@@H]2CC[C@@H](O)[C@H](OC)C2)OC(=O)[C@@H]2CCCCN2C(=O)C(=O)[C@]2(O)O[C@H]([C@@H](OC)C1)[C@@H](OC)C[C@H]2C"
  RapaLink-1 Blockade: "0 (<20%)"
- Smiles String: "CO[C@H]1C/C(C)=C/[C@@H](C/C=C/c2cc[n+]([O-])cc2)C(=O)C[C@H](O)[C@@H](C)[C@@H](/C(C)=C/[C@@H]2CC[C@@H](O)[C@H](OC)C2)OC(=O)[C@@H]2CCCCN2C(=O)C(=O)[C@]2(O)O[C@H]([C@@H](OC)C1)[C@@H](OC)C[C@H]2C"
  RapaLink-1 Blockade: "0 (<20%)"

---

# System Under Test: FKBP12 (Homo sapiens (Human))
# Sequence (P62942 whole entry): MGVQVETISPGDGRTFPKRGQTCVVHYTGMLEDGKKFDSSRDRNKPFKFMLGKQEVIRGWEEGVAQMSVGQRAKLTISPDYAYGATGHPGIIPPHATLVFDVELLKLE
# Test Method Notes: FKBP12 binding assay (fluorescence polarization)
Rule: Kd below 1 nM gives fulfilled, anything at or above gives not fulfilled.

- Smiles String: "CO[C@H]1C/C(C)=C/[C@@H](CCCSCCN)C(=O)C[C@H](O)[C@@H](C)[C@@H](/C(C)=C/[C@@H]2CC[C@@H](O)[C@H](OC)C2)OC(=O)[C@@H]2CCCCN2C(=O)C(=O)[C@]2(O)O[C@H]([C@@H](OC)C1)[C@@H](OC)C[C@H]2C"
  Label Class: "fulfilled"
- Smiles String: "CO[C@H]1C/C(C)=C/[C@@H](CCCSC[C@H](N)C(=O)O)C(=O)C[C@H](O)[C@@H](C)[C@@H](/C(C)=C/[C@@H]2CC[C@@H](O)[C@H](OC)C2)OC(=O)[C@@H]2CCCCN2C(=O)C(=O)[C@]2(O)O[C@H]([C@@H](OC)C1)[C@@H](OC)C[C@H]2C"
  Label Class: "not fulfilled"
- Smiles String: "CO[C@H]1C/C(C)=C/[C@@H](C/C=C/c2ccncc2)C(=O)C[C@H](O)[C@@H](C)[C@@H](/C(C)=C/[C@@H]2CC[C@@H](O)[C@H](OC)C2)OC(=O)[C@@H]2CCCCN2C(=O)C(=O)[C@]2(O)O[C@H]([C@@H](OC)C1)[C@@H](OC)C[C@H]2C"
  Label Class: "not fulfilled"
- Smiles String: "CO[C@H]1C/C(C)=C/[C@@H](CCCc2cc[n+]([O-])cc2)C(=O)C[C@H](O)[C@@H](C)[C@@H](/C(C)=C/[C@@H]2CC[C@@H](O)[C@H](OC)C2)OC(=O)[C@@H]2CCCCN2C(=O)C(=O)[C@]2(O)O[C@H]([C@@H](OC)C1)[C@@H](OC)C[C@H]2C"
  Label Class: "not fulfilled"
- Smiles String: "CO[C@H]1C/C(C)=C/[C@@H](CCCc2ccccn2)C(=O)C[C@H](O)[C@@H](C)[C@@H](/C(C)=C/[C@@H]2CC[C@@H](O)[C@H](OC)C2)OC(=O)[C@@H]2CCCCN2C(=O)C(=O)[C@]2(O)O[C@H]([C@@H](OC)C1)[C@@H](OC)C[C@H]2C"
  Label Class: "not fulfilled"
- Smiles String: "CO[C@H]1C/C(C)=C/[C@@H](C/C=C/C(=O)O)C(=O)C[C@H](O)[C@@H](C)[C@@H](/C(C)=C/[C@@H]2CC[C@@H](O)[C@H](OC)C2)OC(=O)[C@@H]2CCCCN2C(=O)C(=O)[C@]2(O)O[C@H]([C@@H](OC)C1)[C@@H](OC)C[C@H]2C"
  Label Class: "fulfilled"
- Smiles String: "CO[C@H]1C/C(C)=C/[C@@H](CCCSCCN(C)C)C(=O)C[C@H](O)[C@@H](C)[C@@H](/C(C)=C/[C@@H]2CC[C@@H](O)[C@H](OC)C2)OC(=O)[C@@H]2CCCCN2C(=O)C(=O)[C@]2(O)O[C@H]([C@@H](OC)C1)[C@@H](OC)C[C@H]2C"
  Label Class: "not fulfilled"
